biological target: Peroxisome proliferator-activated receptor gamma (Homo sapiens) (UniProt P37231); experiment: qHTS assay to identify small molecule antagonists of the peroxisome proliferator-activated receptor gamma (PPARg) signaling pathway (AID 743191); conditions: HEK293H PPARg-UAS-bla, beta-lactamase ratio, antagonist, 17 h; series mostly up to 62.6 µM; also: % is scaled to controls: 0 for no effect and ±100 for the full control effect; nearly all actives have a fitted effect of over 30% in size
Sequence (P37231 whole entry, looked up): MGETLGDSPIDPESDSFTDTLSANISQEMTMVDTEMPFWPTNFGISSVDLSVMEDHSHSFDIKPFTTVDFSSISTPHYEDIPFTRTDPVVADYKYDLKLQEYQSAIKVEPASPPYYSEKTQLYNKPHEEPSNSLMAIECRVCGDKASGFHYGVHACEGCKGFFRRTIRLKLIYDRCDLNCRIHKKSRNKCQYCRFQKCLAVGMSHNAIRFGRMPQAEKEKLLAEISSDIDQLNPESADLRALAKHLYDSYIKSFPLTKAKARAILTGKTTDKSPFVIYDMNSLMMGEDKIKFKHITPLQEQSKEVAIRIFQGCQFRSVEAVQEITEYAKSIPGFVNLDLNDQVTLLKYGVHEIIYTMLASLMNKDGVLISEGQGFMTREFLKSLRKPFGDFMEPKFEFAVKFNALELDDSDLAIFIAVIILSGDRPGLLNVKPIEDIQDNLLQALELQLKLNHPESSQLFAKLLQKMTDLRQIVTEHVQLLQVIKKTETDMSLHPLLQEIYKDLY
Results filed as inconclusive are left out. Active and inactive are the calls of the source. Calls follow the shape of the full dose curve.
assay_readout: outcome

| molecule | val |
| --- | --- |
| CC1(C)CC(N=C=O)CC(C)(CN=C=O)C1 (stereo not drawn) | inactive |
| OC1CCCC1 | inactive |
| c1ccc2[nH]cnc2c1 | inactive |

###

Biological target: Estrogen receptor (Homo sapiens) (UniProt P03372)
Sequence (P03372 whole entry, looked up): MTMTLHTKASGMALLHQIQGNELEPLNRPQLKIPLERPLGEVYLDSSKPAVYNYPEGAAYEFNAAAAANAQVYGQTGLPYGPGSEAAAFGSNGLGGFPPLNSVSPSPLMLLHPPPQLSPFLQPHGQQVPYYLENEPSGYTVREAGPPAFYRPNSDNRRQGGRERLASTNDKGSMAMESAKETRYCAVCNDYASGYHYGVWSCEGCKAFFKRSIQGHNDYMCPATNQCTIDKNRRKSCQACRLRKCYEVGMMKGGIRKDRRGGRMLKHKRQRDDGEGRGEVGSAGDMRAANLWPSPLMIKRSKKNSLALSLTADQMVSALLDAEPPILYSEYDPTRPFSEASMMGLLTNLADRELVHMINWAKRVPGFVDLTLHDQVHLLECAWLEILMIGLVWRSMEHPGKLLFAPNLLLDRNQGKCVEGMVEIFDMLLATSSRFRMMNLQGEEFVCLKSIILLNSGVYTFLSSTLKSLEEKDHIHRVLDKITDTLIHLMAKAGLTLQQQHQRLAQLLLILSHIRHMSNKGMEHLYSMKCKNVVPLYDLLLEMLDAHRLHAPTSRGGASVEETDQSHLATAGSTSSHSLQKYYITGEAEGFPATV
Test: qHTS assay to identify small molecule antagonists of the estrogen receptor alpha (ER-alpha) signaling pathway (AID 743069)
Details: HEK293 ER-alpha-UAS-bla, beta-lactamase ratio, antagonist mode; series mostly up to 69.4 µM
Description: National Center for Advancing Translational Sciences [NCATS] NIH Chemical Genomics Center [NCGC] U.S. Environmental Protection Agency [EPA] National Institutes of Environmental Health Sciences [NIEHS] National Toxicology Program [NTP] U.S. Food and Drug Administration [FDA] Estrogen receptor (ER), a nuclear hormone receptor, plays an important role in development, metabolic homeostasis and reproduction. […]
Activity calls are given as the source filed them. Calls follow the shape of the dose curve; as a rule, active = well fitted curve in the direction sought with a large enough effect in the signal ratio in the repeat runs (not every such curve was filed as active); inconclusive = weak or mixed curves, or effect the other way; inactive = no such curve, though single readings can be large or run the other way; the % refers to the signal ratio.
Labels: yes (1) = active, no (0) = inactive

| molecule | cat |
| --- | --- |
| CC1=C(/C=C/C(C)=C/C=C/C(C)=C/CO)C(C)(C)CCC1 | no (0) |
| CCCCCC/C=C/CCCCCCCC(=O)O | no (0) |
| O=C1O[C@H](CO)[C@@H](O)[C@H](O)[C@H]1O | no (0) |
| CN(C)c1ccc(C(=N)c2ccc(N(C)C)cc2)cc1 | yes (1) |
| CC(=O)Nc1ccc(C(=O)O)cc1 | no (0) |
| OC[C@@H](O)[C@H](O)[C@H](O)[C@@H](O)CO | no (0) |
| CC1COc2ccccc2N1C(=O)C(Cl)Cl (stereo not given) | no (0) |
| Cn1c([N+](=O)[O-])cnc1COC(N)=O | no (0) |
| O=C1CCCCC1 | no (0) |
| C=C1C2CCC(C2)C1(C)C (stereo not given) | no (0) |
| Nc1cc(-c2ccncc2)c[nH]c1=O | no (0) |
| C=C(C)C(=O)OCCCCCC | no (0) |
| CN(CCOc1ccc(CC2SC(=O)NC2=O)cc1)c1ccccn1 (stereo not given) | no (0) |
| CCC(=O)O | no (0) |
| CC1Cc2ccccc2N1NC(=O)c1ccc(Cl)c(S(N)(=O)=O)c1 (stereo not given) | no (0) |
| CC1=CC[C@H]2C[C@@H]1C2(C)C | no (0) |
| NS(=O)(=O)c1cc2c(cc1Cl)NC=NS2(=O)=O | no (0) |
| Clc1cc(Cl)c(Cl)cc1Cl | no (0) |
| CCCCOCCOCCOC(=O)CCCCC(=O)OCCOCCOCCCC | no (0) |
| CCCCOCCO | no (0) |
| CCCCCCOC(C)=O | no (0) |
| C=C(C)C(=O)OCCC[Si](OC)(OC)OC | no (0) |
| ClC1=C(Cl)C(Cl)(Cl)C(Cl)=C1Cl | no (0) |
| COC(=O)c1ccccc1O | no (0) |
| CC1(C)CC(N=C=O)CC(C)(CN=C=O)C1 (stereo not given) | no (0) |
